- Experiment Description: self-splicing fitness, log relative to wild type (ln ratio); higher = more splicing; Tetrahymena group I intron in knt gene, E. coli kanamycin selection, DiMSum; sequences stand for … in CUCUCU…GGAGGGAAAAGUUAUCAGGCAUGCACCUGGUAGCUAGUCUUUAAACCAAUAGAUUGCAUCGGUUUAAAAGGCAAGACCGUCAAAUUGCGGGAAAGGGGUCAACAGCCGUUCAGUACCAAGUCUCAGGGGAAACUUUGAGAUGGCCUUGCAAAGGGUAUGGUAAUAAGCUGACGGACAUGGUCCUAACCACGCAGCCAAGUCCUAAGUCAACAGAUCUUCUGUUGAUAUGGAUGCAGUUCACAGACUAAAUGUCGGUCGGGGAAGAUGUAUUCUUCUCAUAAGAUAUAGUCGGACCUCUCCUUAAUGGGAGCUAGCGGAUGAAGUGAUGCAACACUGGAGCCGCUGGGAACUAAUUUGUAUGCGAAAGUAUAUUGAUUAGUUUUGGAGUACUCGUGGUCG;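 also: selection with 25 µg/mL kanamycin versus none on LB agar overnight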
- Assay Context: 37 °C
Measurement Type: self-splicing fitness (ln)

{"columns": ["Sequence Chain", "Test Value"],
 "data": [
  ["AAAGAGCAAUAUUACGAUCG", -1.29],
  ["UUGGAGCAAUAUUACGGUAA", -1.01],
  ["CGCGAGCAAUAUUACGCGGC", -2.4],
  ["AACAAGCAAUAUUACGACCC", 0.116],
  ["CGCCAGCAAUAUUACGGCGG", -1.83],
  ["GUGGAGCAAUAUUACGUCGG", -2.35],
  ["GCAGAGCAAUAUUACGCGCG", -1.49],
  ["AAAUAGCAAUAUUACGCAAC", -1.53],
  ["GCACAGCAAUAUUACGGAAG", -2.11],
  ["GCCGAGCAAUAUUACGUUUC", -2.28],
  ["GCCAAGCAAUAUUACGCGUG", -1.97],
  ["CUGUAGCAAUAUUACGAUUU", -2.62],
  ["ACCAAGCAAUAUUACGAAAA", -2.91],
  ["AUUCAGCAAUAUUACGAGCU", -0.997],
  ["UCUAAGCAAUAUUACGGGCG", -0.979],
  ["GAGAAGCAAUAUUACGUCAA", -0.98],
  ["CCCAAGCAAUAUUACGGUCU", -2.64],
  ["UGCAAGCAAUAUUACGAGGG", -1.77],
  ["GUAUAGCAAUAUUACGAAUC", -0.29],
  ["GUUAAGCAAUAUUACGUUAG", -1.32],
  ["GAAAAGCAAUAUUACGGGGG", -1.15],
  ["GCAAAGCAAUAUUACGCUAU", -1.06],
  ["CAUGAGCAAUAUUACGAGAG", -3.27],
  ["CGUUAGCAAUAUUACGAUAA", -1.52],
  ["CUGGAGCAAUAUUACGCUUG", -2.35],
  ["GCUUAGCAAUAUUACGUUUG", -1.58],
  ["CGUGAGCAAUAUUACGCAAU", -2.75],
  ["AAACAGCAAUAUUACGGUAC", -2.75],
  ["GCGCAGCAAUAUUACGUGCU", -2.87],
  ["AGUGAGCAAUAUUACGAGUA", -2.18],
  ["AGUAAGCAAUAUUACGACUC", -0.797],
  ["GUUAAGCAAUAUUACGAUGG", -1.77],
  ["GUUUAGCAAUAUUACGGGAG", -1.83],
  ["ACAGAGCAAUAUUACGGAAA", -2.81],
  ["UCGCAGCAAUAUUACGCACG", -0.255],
  ["CGUGAGCAAUAUUACGGAAU", -2.84],
  ["GCCGAGCAAUAUUACGGUAA", -0.414],
  ["CCUAAGCAAUAUUACGAUCA", -3],
  ["CGAAAGCAAUAUUACGAGCG", -0.277],
  ["CCUGAGCAAUAUUACGGUGC", -2.15],
  ["GUGCAGCAAUAUUACGUUGU", -2.56],
  ["UGGGAGCAAUAUUACGAAAC", -1.79],
  ["GGAUAGCAAUAUUACGCCCA", -1.39],
  ["GCACAGCAAUAUUACGCUAU", -0.752],
  ["UUUCAGCAAUAUUACGUAAU", -1.58],
  ["UUGCAGCAAUAUUACGGGUU", -2.15],
  ["AUCCAGCAAUAUUACGCGAG", -0.241],
  ["AGGUAGCAAUAUUACGUUUG", -2.55]
]}
